Recorded measurements of koff, one per entry
Target: T1, active human C1s purified from human serum (CompTech, Tyler, TX, catalog number A104) (human, UniProt P09871 16-437; P09871 438-688)
T1 construct: Serum-derived material, biotinylated for the ELISA; also called human active C1s; active C1s
T1 sequence 1: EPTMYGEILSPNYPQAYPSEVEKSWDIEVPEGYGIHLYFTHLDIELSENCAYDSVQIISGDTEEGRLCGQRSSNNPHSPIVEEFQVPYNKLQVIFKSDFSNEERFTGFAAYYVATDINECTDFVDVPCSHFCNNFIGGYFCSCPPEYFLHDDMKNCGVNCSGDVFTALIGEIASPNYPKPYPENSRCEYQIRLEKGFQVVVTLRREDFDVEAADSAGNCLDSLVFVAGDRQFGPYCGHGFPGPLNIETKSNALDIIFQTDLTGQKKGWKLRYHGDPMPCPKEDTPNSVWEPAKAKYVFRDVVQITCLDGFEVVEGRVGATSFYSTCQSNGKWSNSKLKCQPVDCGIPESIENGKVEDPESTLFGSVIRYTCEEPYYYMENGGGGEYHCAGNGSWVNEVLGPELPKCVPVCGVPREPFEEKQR
T1 sequence 2: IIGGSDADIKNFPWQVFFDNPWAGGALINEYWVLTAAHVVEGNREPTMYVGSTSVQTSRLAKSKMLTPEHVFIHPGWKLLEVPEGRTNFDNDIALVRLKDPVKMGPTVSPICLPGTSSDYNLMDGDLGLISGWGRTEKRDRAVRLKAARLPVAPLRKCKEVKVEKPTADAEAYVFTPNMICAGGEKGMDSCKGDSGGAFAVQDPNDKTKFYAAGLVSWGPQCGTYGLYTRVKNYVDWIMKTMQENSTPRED
Assay: SPR, antibody captured via anti-human Fc, C1s in solution
# number only, unit s⁻¹ dropped from output

Record excerpt, results attached:
MAB26 (antibody, V domains shown, IgG) VH: EVQLVESGGGVVRPGGSLRLSCAASGFTFDDYGMSWVRQAPGKGLEWVSGINWEGGSTGYADSVKGRFSISRDNAKNSLYLQMNSLRAEDTALYYCARDEQLGGLKYYYYYMDVWGKGTTVTVSS VL: DIQMTQSPSSLSASVGDRVTITCRASQGIRNDLGWYQQKPGKAPKRLIYTASNLQSGVPSRFSGSGSGTEFTLTISSLQPEDFATYYCLQTNIYPLTFGGGTKVEIK = 0.00055
MAB22 (antibody, V domains shown, IgG) VH: EVQLVESGGGVVRPGGSLRLSCAASGFTFDDYGMSWVRQAPGKGLEWVSGINWEGGSTGYADSVKGRFTISRDNAKNSLYLQMNSLRAEDTALYYCARDEQLGGKYYYYYYMDVWGKGTTVTVSS VL: DIQMTQSPSSLSASVGDRVTITCRASQGIRNDLGWYQQKPGKAPKRLIYTASNLQSGVPSRFSGSGSGTEFTLTISSLQPEDFATYYCLQYRSHPLTFGGGTKVEIK = 0.000335
MAB1 (antibody, V domains shown, 191g-derived clone expressed as IgG in 293 cells) VH: QVQLVESGGGLVKPGGSLRLSCAASGFTFSDYYMSWIRQAPGKGLEWVSYISRSGSTKYYADSVKGRFTISRDNAKNSLYLQMNSLRAEDTAVYYCARDQEDYALDYWGQGTLVTVSS VL: DIQMTQSPSSLSASVGDRVTITCQASQDISNYLNWYQQKPGKAPKLLIYDASNLETGVPSRFSGSGSGTDFTFTISSLQPEDIATYYCEQYEDYPLTFGGGTKVEIK = 0.000255
MAB3 (antibody, V domains shown, IgG) VH: QVQLVESGGGLVKPGGSLRLSCAASGFTFSDYYMSWIRQAPGKGLEWVSYISRSGSTKYYADSVKGRFTISRDNAKNSLYLQMNSLRAEDTAVYYCARDETDYAFDEWGQGTLVTVSS VL: DIQMTQSPSSLSASVGDRVTITCQASQDISNYLNWYQQKPGKAPKLLIYDASNLETGVPSRFSGSGSGTDFTFTISSLQPEDIATYYCKQYEDYPLTFGGGTKVEIK = 0.000209
MAB24 (antibody, V domains shown, IgG) VH: EVQLVESGGGVVRPGGSLRLSCAASGFTFDDYGMSWVRQAPGKGLEWVSGINWEGGSTGYADSVKGRFTISRDNAKNSLYLQMNSLRAEDTALYYCARDEQLGGTTYYYYYMDVWGKGTTVTVSS VL: DIQMTQSPSSLSASVGDRVTITCRASQGIRNDLGWYQQKPGKAPKRLIYTASNLQSGVPSRFSGSGSGTEFTLTISSLQPEDFATYYCLQTNIYPLTFGGGTKVEIK = 0.000328

What value of koff has been reported for the following binder? MAB30 (antibody, V domains shown, IgG) VH: EVQLVESGGGVVRPGGSLRLSCAASGFTFDDYGMSWVRQAPGKGLEWVSGINWEGGSTGYADSVKGRFTISRDNAKNSLYLQMNSLRAEDTALYYCARDEQLGGRHYYYYYMDVWGKGTTVTVSS VL: DIQMTQSPSSLSASVGDRVTITCRASQGIRNDLGWYQQKPGKAPKRLIYTASNLQSGVPSRFSGSGSGTEFTLTISSLQPEDFATYYCLQYNAYPLIFGGGTKVEIK
0.000688

What value of koff has been reported for the following binder? MAB28 (antibody, V domains shown, IgG) VH: EVQLVESGGGVVRPGGSLRLSCAASGFTFDDYGMSWVRQAPGKGLEWVSGINWEGGSTGYADSVKGRFSISRDNAKNSLYLQMNSLRAEDTALYYCARDEQLGGLKYYYYYMDVWGKGTTVTVSS VL: DIQMTQSPSSLSASVGDRVTITCRASQGIRNDLGWYQQKPGKAPKRLIYTASNLQSGVPSRFSGSGSGTEFTLTISSLQPEDFATYYCLQYHSYPLRFGGGTKVEIK
0.000409

meta.source: patent US20250188188A1
